All values here come from paper PMC3154423.

# target.desc: Jun bZIP R270A;Fos bZIP K148A (human;human, UniProt P05412;P01100 252-315;137-200, R270A|K148A)
# Sequence (P05412 252-315 R270A, chain 1 of 2): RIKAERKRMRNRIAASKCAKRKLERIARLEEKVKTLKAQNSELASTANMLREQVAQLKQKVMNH
# Sequence (P01100 137-200 K148A, chain 2 of 2): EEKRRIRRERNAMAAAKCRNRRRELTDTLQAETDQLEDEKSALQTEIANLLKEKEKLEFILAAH
# experiment.summary: ITC
recorded.metric: pKd
Quick note: pKd values are minus log10 of concentrations in mol/L.

Challenge: Query (binder): TRE duplex 15-mer (dsDNA) DNA 1: CGCGTGACTCACCCC DNA 2: GGGGTGAGTCACGCG ; field requested: pKd
Response given: 5.72
